Parameter: yeast fitness. Scope: all listed entries.
B1: tRNA (parent)
chain: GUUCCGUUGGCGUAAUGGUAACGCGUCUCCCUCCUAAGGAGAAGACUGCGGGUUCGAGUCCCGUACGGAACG

Variants of: B1
Experiment: yeast fitness relative to wild type (ratio to wild type); higher = fitter; tRNA-Arg(CCU), competitive growth, 37 C, YPD
Fewer inactive variants are shown than the library holds.
readoutKind: yeast fitness

{"columns": ["orderedResidues", "censoringSign", "valueReported"],
 "data": [
  ["GUUCGGUUGGCGUAAUGGUAACGCAUCUCCCUCCUAAGGAGAAGAAUGCGGGUUCGAGUCCCGUACGGAACG [C5G G25A C46A]", "=", 0.651],
  ["GUUCCGUUGGCGUAAUGGUAGCGCGUCUCCCCCCUAAGGAGAAGACUGCGGGUUCGAGGCUCGUAUGGACCG [A21G U32C U59G C61U C66U A70C]", "=", 0.572],
  ["GUUCCGUUGGCCUAAUGGUAACGCGUCUCCCUUCUAAGGAGCAGACUGCGGGUUCGAGUCCCGUACGGAACG [G12C C33U A42C]", "≤", 0.5],
  ["GUUCCGUUGCCGUAAUGGUAACGCGUCUCCCUCCGAAGGAGACGACCGCGGGUUUGAGUCCCGUACGGCACG [G10C U35G A43C U47C C55U A69C]", "=", 0.574],
  ["GUUCCGUUGACGUAAUGGAAACGCGUCUCCCUCCUAAGGAGAACACUGCGGGUUCGAGUCCCGUACGGAACG [G10A U19A G44C]", "=", 0.54],
  ["GUUCCGUUGGCGUAAUGGUAACGCGUCUCCCUCCUAAGGAGGAGACUGCGGGUUCGAGUCCAGUAUGGAACG [A42G C62A C66U]", "=", 0.614],
  ["GUUCCGUUGCCGUAAUGGUAACGCGUCUCCCUCCUAAGGAGACGACCGCGGGUUUGAGUCCCGUACGGCACG [G10C A43C U47C C55U A69C]", "≤", 0.5],
  ["GUUCCGUUGGCGUAAUGGUAACGAGUCUCCCUCCUAAGGAGCAGACUGCGGGUUCGAGUCCCGUACCGAUCG [C24A A42C G67C A70U]", "≤", 0.5],
  ["GUUACGUUGGCGUAAUGGUGACGCGUCUCCCUCCUAAGGAGAAGACUGCGGGUUCGAAUCCCGUACGGACCG [C4A A20G G58A A70C]", "=", 1.02],
  ["GUUCCGUUGGCGUAAUCGUAACGCGUCUCCCUCCUAAGGAGAAGACGGCGGGUUCGAGUCCCGUACGGAACG [G17C U47G]", "≤", 0.5],
  ["GUUCCGUUGGCGUAAUGGUAACGCGUCCCACUCCUAAGAAGAAGACUGCGGGUUCGAGUCCCGUAUGGAACG [U28C C30A G39A C66U]", "=", 0.594],
  ["GUUCCGUUGGCGUAAUGGUAACGCGUCACCGUCCUAAGGAGAAGACUACGCGUUGGAGUCCCGUACGGAACG [U28A C31G G48A G51C C55G]", "=", 0.523],
  ["GUUCCGUUGGCGUAAUGGUAAGGCGUCUCCCUGCUUAGGAGAAGACUGCGGGUUCGAGUCCCGUACGGAACG [C22G C33G A36U]", "≤", 0.5],
  ["GUUCGGUUGGCGUAUUGGUAACGCGUCUCCCUCCUAAGGAGAAGACUGCGGGUUCGAGUCCCAUACGGAACG [C5G A15U G63A]", "=", 0.551],
  ["GUUGCGUUGGCGUAAUGGUAACGCGUCUCCCUCCUAAGGAGAAGGCUGCGGGUUCGUGUCCCGUAUGGAACG [C4G A45G A57U C66U]", "=", 0.512],
  ["GUUCCAUUGGCGUAAUGGUAACGCGUCUGCCCCCUAAGGAGAAGACUGCGGGUUCGAGUCCCGUACGGAACG [G6A C29G U32C]", "=", 0.548],
  ["GUUCCGUUGGCGUAUUGGUAACGCGUCUCCCUCCUAAGGAGAAGACUGCGGGUUCGAGUGUCGUACGAAACG [A15U C60G C61U G68A]", "≤", 0.5],
  ["GUUUCGUUGGCGUAAUGGUAACGCGUCUCCCUCCUAAGGAGAAGCCUGCGGGUUCGAGUCCCGUACGGAACG [C4U A45C]", "=", 0.939],
  ["GUUCCGUUGGCGAAAUGGUAACGCGUCUCCCUUCUAAGGAGAAGACUGCGGGUUCGAGUCCCGUACGGAACG [U13A C33U]", "=", 0.754],
  ["GUUCCGUUGGCCUAAUGGUAUCGCGUCUCCCUCCUAAGGAGAAGACUGCCGGUUCGAGUCCCGUACGGACCG [G12C A21U G50C A70C]", "≤", 0.5],
  ["GUUCCGUUCGCGUAAUGGUAACGCGUCUCCCUCCUAAGGAGAAGACGGAGGGUUCGAGUCCCGUACGGUACG [G9C U47G C49A A69U]", "≤", 0.5],
  ["GUUCCGUCGGCGUAAUGGUAACGCGUCUCCCUCCUUAGGAGAAGACUGCGGGUUCGAGUCCCGUACGGAACG [U8C A36U]", "=", 0.647],
  ["GUUCCGUUGGUGUAAUGGUAACGCGUCCCCCGCCUAAGGAGAAGACUGCGGGUUCGAGUCCCGUACGGAACG [C11U U28C U32G]", "=", 0.569],
  ["GUUCCGGUGCCGUAAUGGUAACGCGUCUCCCUCCUAAGGAGAACACUGCGGGUUCGAGUCCCGUACGGUACG [U7G G10C G44C A69U]", "=", 0.617],
  ["GUUCCGUUGGCGUCAUGGUAACGCGUCUCCCUCCUGAGGAAAAGACUCCGGGUUCGAGCCCCGUACGGACCG [A14C A36G G41A G48C U59C A70C]", "≤", 0.5],
  ["GUUCCGUUGGCGUAAUGGUAACGCGUCUCCCUCGUAAGGAGAAGACUGCGGGUUGGAGUCCCGUACGGAACG [C34G C55G]", "=", 0.567],
  ["GUACCGUUGGCGUAAUGGUAACGCGUCUCCCUCCUAAGGAGAAGACUGCGGGUUCGAGUCCAGUACGGAACG [U3A C62A]", "=", 0.727],
  ["GUUCCGUUGGCGUAAUGGGAACGCGUCUCCCUCCUAAGGAGAUGACUGCGGGUUCGAGUCCCGUAAGGAACG [U19G A43U C66A]", "=", 0.6],
  ["GUUCCGUUGGCGUAAUGGUAACGCGUCUCCCUGGUAAGGAGAAGACUGCGGGUUCGAGUCCUGUACGGAACG [C33G C34G C62U]", "≤", 0.5],
  ["GUUUCGUUGGCGUAAUGGUAACGCGUCUCACUCCUAAGGAGAAGACUGCGGGUUCGAGUCUCGUACGGAACG [C4U C30A C61U]", "=", 0.812],
  ["GUUUCGUUGGCGUAACGGUAACGCGUCUCCCUCCUUAGGAGAAGACUGUGGGUUCGACUCCCGUAUGGAACG [C4U U16C A36U C49U G58C C66U]", "≤", 0.5],
  ["GUUCCGUUGGCGUAAUGGUAACGCGUCUCCUUCCUAAGGAGAAGACUGCGAGUUCGAGUCCCGUACGGAACG [C31U G51A]", "=", 0.892],
  ["GUUCCGUUGGCGUAAUGGUAACGCGUCUCCCUCCUAAGGAGACGACUGGGGGUUCGGGUCCCGUACGGAACG [A43C C49G A57G]", "=", 0.591],
  ["GUUCCGUUGGCGUAAUGGUAACGCGUCUCCUUCCUAGGGAGAAGCCUGCGGGUUCGAGUCCCGUACGGAACG [C31U A37G A45C]", "=", 0.618],
  ["GUUCCGUUGGCGUAAUGGUAACGCGUCUCCCUCCUAAGGAAGAGACUGCGGGUUCGAGUCCCGUACGGAUCG [G41A A42G A70U]", "≤", 0.5],
  ["GUUCCGUUGGCGUAAUGGUAACGCGUCUCCCUCCUAAGGAGAAGACUACGCGUUCGAGUCGCGUACGGAACG [G48A G51C C61G]", "=", 1.02],
  ["GCUCCGUUGGCGUCAUGGUAACGCGUCUCCCUCCUAAGGAGACGACUGCGGGUUCGAGUCCCGUACGGAACG [U2C A14C A43C]", "≤", 0.5],
  ["GUUCCGUUGGCGUAAUGGUAACGCGUCUCCCUCCUGAGGAGAAGACUGCGGGUUCAACUCCCGUACGGAACG [A36G G56A G58C]", "=", 0.694],
  ["GUUCCGCUGGCGUAUUGGUAACGCGUCUCCCUCCUAAGGAGAAGACUGCGGGUUCGAGUCCCGUACGGUACG [U7C A15U A69U]", "=", 0.527],
  ["GUUCCGUUGACGUAAUGGUAAGGCCUCUCCCUCCUAAGGAGAAGACUGCGGGUUCGAGUCCCGUACGGAACG [G10A C22G G25C]", "≤", 0.5],
  ["GUUCCGUUGGCGUAAUGGUAAUGGGUCUCCCUCCUAAGGAGAAGACCGCGGGUUCGAGUCACGUACGGAACG [C22U C24G U47C C61A]", "≤", 0.5],
  ["GUUCCGUUGGCGUAGUGGUAACGAGUCUCCCUCGUAAGGAGAAGACUGCGGGUUCGAGUCCCGUUCGGAACG [A15G C24A C34G A65U]", "≤", 0.5],
  ["GUUCCGUUGGCGUAAUGGUAACGCGUCUCGCUCCUAAGGAGAAGACUGCGGCUUCGAGUCCCGUCCGGAACG [C30G G52C A65C]", "≤", 0.5],
  ["GUUCCGUUGCCGUAAUGGUAACGCGUCUCCCUACUAAGGAGAAGACUGCGGGUUCGAGUCCCGUACGGAACG [G10C C33A]", "=", 0.506],
  ["GUUCCGAUGGCGUAAUGGUAACGCGUCUCCCUCCUCAGGAGAAGACUGCGGGUUCGAGUCCCGUACGGAACG [U7A A36C]", "=", 0.512]
]}
